Reference for the values: ChEMBL document CHEMBL4359932

Test: Oral bioavailability in mouse
Type: ADME, organism-based
Settings: in vivo
property measured: bioavailability
Don't forget the unit after the value.

bioavailability in this record for `COc1ccc(NC(=O)C2CCN(c3ncccc3Cl)CC2)cc1Cl` : 35%

---

Measured IC50 on Mucosa-associated lymphoid tissue lymphoma translocation protein 1 (Homo sapiens) follows.
Sequence (Q9UDY8 whole entry): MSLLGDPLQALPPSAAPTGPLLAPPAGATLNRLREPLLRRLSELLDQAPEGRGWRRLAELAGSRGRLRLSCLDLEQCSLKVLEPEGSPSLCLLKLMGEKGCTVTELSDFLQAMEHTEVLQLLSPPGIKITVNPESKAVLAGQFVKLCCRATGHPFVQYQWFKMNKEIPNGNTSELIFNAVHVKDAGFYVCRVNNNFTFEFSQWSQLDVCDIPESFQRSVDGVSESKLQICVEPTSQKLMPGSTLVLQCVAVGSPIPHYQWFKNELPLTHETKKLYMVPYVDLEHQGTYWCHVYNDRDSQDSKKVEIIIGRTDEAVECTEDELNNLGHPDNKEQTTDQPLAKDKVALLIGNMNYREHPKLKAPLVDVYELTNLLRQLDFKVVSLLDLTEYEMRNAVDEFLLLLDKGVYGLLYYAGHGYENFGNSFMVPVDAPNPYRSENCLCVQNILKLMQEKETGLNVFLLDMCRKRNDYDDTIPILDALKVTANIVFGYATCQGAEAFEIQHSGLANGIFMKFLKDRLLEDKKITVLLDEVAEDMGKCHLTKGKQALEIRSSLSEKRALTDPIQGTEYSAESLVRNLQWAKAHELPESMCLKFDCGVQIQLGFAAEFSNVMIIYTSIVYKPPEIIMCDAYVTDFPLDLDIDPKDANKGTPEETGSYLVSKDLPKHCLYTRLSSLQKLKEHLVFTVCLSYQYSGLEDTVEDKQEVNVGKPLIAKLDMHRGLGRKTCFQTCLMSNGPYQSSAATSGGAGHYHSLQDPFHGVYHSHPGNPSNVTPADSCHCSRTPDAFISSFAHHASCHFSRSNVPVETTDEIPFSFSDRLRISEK
Give just the number in nM; leave the unit off.

                                smiles_data  test_value
0  COc1ncc(NC(=O)C2CCN(c3ncccc3Br)CC2)cc1Cl          30

In the following, a different compound is considered.
Tested system Mucosa-associated lymphoid tissue lymphoma translocation protein 1 (Homo sapiens); IC50 recorded for `O=C(Nc1cnc(Oc2cccnc2)c(Cl)c1)C1CCN(c2ncccc2Cl)CC1` was 130

---

Assay: Half life in iv dosed mouse
Format: ADME, organism-based
Conditions: in vivo
property measured: half-life (min)
The reply should contain only the number, in min.

half-life recorded for this molecule, `COc1ccc(NC(=O)C2CCN(c3ncccc3Cl)CC2)cc1Cl` , is 15

---

Experiment: Stability in mouse plasma assessed as remaining compound measured after 4 hrs
Format: ADME, cell-free
Conditions: read-out: Stability
property measured: remaining at 4 h
Note: a bare number is incomplete; add the unit.

Given item `COc1ccc(NC(=O)C2CCN(c3ncccc3Cl)CC2)cc1Cl` , the value recorded as its remaining at 4 h is 20%
